From: patent US20230056252A1

Entries annotated with measured kon
Molecular target: T1, biotinylated CD3 epsilon:delta heterodimer protein (Amsbio AMS.CDD-H52WO) (Homo sapiens (Human), UniProt P07766 23-126; P04234 22-105)
T1 construct: also called CD3 heterodimer
Assay: BLI (Octet), CD3 on SA sensor, Fab analyte;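 note: fabs dipped at several concentrations (0–300 nM) onto CD3-loaded streptavidin biosensors, 100 s association then 300 s dissociation in buffer, pH 7.4, sensors blocked with biocytin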
parameter: kon (M⁻¹ s⁻¹)

1) huSP34.12.10 Fab-HF (Fab, V domains shown, also called HC12+LC10) VH: EVQLVESGGGLVQPGGSLRLSCAASGFTFSTYAMNWVRQAPGKGLEWVARIRSKYNNYATYYAASVKGRFTISRDDSKNSLYLQMNSLRTEDTAVYYCVRHGNFGHSYVSWFAYWGQGTLVTVSS VL: QAVVTQPPSLTVSPGGTVTLTCGSSTGAVTTGHYANWVQQKPGQAPRGLIGGTNKRAPGVPARFSGSLSGGKAALTISGAQPEDEAEYYCALWYSNRWVFGGGTKLTVL    501000
2) huSP34.11.9 Fab-HF (Fab, V domains shown, also called HC11+LC9) VH: EVQLVESGGGLVQPGGSLRLSCAASGFTFSTYAMNWVRQAPGKGLEWVGRIRSKYNNYATYYAASVKGRFTISRDDSKNSLYLQMNSLRTEDTAVYYCVRHGNFGHSYVSWFAYWGQGTLVTVSS VL: QAVVTQPPSLTVSPGGTVTLTCGSSTGAVTTGHYANWVQQKPGQAPRGLIGGTNKRAPGVPARFSGSLSGGKAALTISGAQPEDEAEYYCALWYSNLWVFGGGTKLTVL    898000
3) huSP34.13.10 Fab-HF (Fab, V domains shown, also called HC13+LC10) VH: EVQLVESGGGLVQPGGSLRLSCAASGFTFSTYAMNWVRQAPGKGLEWVGRIRSKYNNYATYYAASVKGRFTISRDDSKNTLYLQMNSLRTEDTAVYYCVRHGNFGHSYVSWFAYWGQGTLVTVSS VL: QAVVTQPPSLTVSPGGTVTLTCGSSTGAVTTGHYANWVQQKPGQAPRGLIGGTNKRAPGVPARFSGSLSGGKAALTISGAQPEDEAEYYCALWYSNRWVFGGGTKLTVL    1.36e+06
4) huSP34.3.9 Fab-HF (Fab, V domains shown, also called HC3+LC9) VH: EVQLVESGGGLVQPGGSLRLSCAASGFTFNTYAMNWVRQAPGKGLEWVGRIRSKYNNYATYYADSVKGRFTISRDDSKNSLYLQMNSLRTEDTAVYYCVRHGNFGHSYVSWFAYWGQGTLVTVSS VL: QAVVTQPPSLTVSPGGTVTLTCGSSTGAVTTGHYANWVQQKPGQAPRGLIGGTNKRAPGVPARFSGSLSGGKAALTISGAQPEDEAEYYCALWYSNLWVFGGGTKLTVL    632000
5) huSP34.13.8 Fab-HF (Fab, V domains shown, also called HC13+LC8) VH: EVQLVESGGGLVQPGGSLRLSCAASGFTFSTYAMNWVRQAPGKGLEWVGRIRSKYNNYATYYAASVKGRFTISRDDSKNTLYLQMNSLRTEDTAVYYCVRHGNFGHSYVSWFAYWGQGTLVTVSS VL: QAVVTQEPSLTVSPGGTVTLTCGSSTGAVTTGHYANWVQQKPGQAPRGLIGGTNKRAPGVPARFSGSLLGGKAALTISGAQPEDEAEYYCALWYSNRWVFGGGTKLTVL    933000
6) huSP34.12.7 Fab-HF (Fab, V domains shown, also called HC12+LC7) VH: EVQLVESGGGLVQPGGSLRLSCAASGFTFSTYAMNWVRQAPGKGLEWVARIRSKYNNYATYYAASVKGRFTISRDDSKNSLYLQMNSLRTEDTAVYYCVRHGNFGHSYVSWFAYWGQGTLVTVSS VL: QAVVTQEPSLTVSPGGTVTLTCRSSTGAVTTGHYANWVQQKPGQAPRGLIGGTNKRAPGVPARFSGSLLGGKAALTISGAQPEDEAEYYCALWYSNLWVFGGGTKLTVL    966000
7) mSP34 Fab-HF v2 (Fab, V domains shown) VH: EVKLLESGGGLVQPKGSLKLSCAASGFTFNTYAMNWVRQAPGKGLEWVARIRSKYNNYATYYADSVKDRFTISRDDSQSILYLQMNNLKTEDTAMYYCVRHGNFGNSYVSWFAYWGQGTLVTVSA VL: QAVVTQESALTTSPGETVTLTCRSSTGAVTTSNYANWVQEKPDHLFTGLIGGTNKRAPGVPARFSGSLIGDKAALTITGAQTEDEAIYFCALWYSNLWVFGGGTKLTVLG    532000
8) huSP34.11.8 Fab-HF (Fab, V domains shown, also called HC11+LC8) VH: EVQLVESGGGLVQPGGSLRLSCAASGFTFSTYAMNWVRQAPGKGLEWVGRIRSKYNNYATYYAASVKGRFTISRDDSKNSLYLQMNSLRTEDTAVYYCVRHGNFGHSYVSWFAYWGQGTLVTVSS VL: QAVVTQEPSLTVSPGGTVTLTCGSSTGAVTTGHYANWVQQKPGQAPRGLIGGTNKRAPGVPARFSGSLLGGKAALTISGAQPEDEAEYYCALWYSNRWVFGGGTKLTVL    610000
9) huSP34.3.10 Fab-HF (Fab, V domains shown, also called HC3+LC10) VH: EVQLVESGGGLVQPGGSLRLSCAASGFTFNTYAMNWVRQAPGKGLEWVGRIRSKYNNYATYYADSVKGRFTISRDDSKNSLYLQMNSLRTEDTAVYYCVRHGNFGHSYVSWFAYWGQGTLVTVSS VL: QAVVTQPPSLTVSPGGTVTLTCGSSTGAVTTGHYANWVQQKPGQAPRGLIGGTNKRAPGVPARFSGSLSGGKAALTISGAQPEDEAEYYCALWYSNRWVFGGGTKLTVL    683000
10) huSP34.12.9 Fab-HF (Fab, V domains shown, also called HC12+LC9) VH: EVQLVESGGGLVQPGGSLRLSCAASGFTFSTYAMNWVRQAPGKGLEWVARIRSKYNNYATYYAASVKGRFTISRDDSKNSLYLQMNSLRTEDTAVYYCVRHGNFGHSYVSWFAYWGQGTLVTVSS VL: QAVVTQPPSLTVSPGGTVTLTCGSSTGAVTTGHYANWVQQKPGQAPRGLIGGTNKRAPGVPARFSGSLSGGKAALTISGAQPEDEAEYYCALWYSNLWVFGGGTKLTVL    1.04e+06
